target: Calmodulin ( (human brain CaM or …, UniProt P0DP23 1-149)); assay: SPR
TEST READOUT: Kd

Full-length recombinant human neurogranin with a His-tag at the N-terminus (natural protein) MDCCTENACSKPDDDILDIPLDDPGANAAAAKIQASFRGHMARKKIKSGERGRKGPGPGGPGGAGVARGGAGGGPSGD | 480 nM
